tested on: MOLM-13; test: cell viability (% survival relative to DMSO control, bortezomib = 0%); higher = less cytotoxic; details: 10000 nM; 72 h
Attribute measured: cell viability (%)
Field: numeric (%). Do not append units.

Recorded cell viability, per entry:
CC(C(=O)O)C(=O)O [Methylmalonate]	89.2
Cl.OC[C@H]1NC[C@@H](O)[C@@H](O)[C@@H]1O [1-Deoxymannojirimycin hydrochloride]	105
CC(C)C[C@H](NC(=O)[C@@H](O)[C@H](N)Cc1ccccc1)C(=O)O	94.3

Tell me the measured cell viability of `C=CCc1ccc2c(c1O)C(=O)c1ccccc1C2=O` , please. 99.2

Tell me the measured cell viability of `Cc1coc2c1C(=O)C(=O)c1c-2ccc2c(C)cccc12` , please. 101

====

Catalogue of compounds with associated cell viability
system: myeloid leukemia patient primary cells Pat.6; assay: cell viability (% survival relative to DMSO control); higher = less cytotoxic; settings: 1000 nM; 72 h
State the value, then name its unit.

Tell me the measured cell viability of `Sc1ncnc2nc[nH]c12` , please. 88.3%

Tell me the measured cell viability of `CCN(CC)CCN(Cc1ccc(-c2ccc(C(F)(F)F)cc2)cc1)C(=O)Cn1c(SCc2ccc(F)cc2)nc(=O)c2c1CCC2` , please. 79.3%

Tell me the measured cell viability of `COc1c(C)c2c(c(O)c1C/C=C(\C)CCC(=O)O)C(=O)OC2` , please. 93.2%

Tell me the measured cell viability of CC12CCC(O)CC1CCC1C2CCC2(C)C(C3=CC(=O)OC3)CCC12O (centres undefined) , please. 39.5%

====

test system: Mono-Mac-6; experiment: cell viability (% survival relative to DMSO control, bortezomib = 0%); higher = less cytotoxic; conditions: 1 nM; 72 h
Catalogue of molecules with associated cell viability
State the value, then name its unit.

CC(Cc1ccc(O)c(O)c1)C(C)Cc1ccc(O)c(O)c1 (stereo unspecified) [Masoprocol]	86.6%

Tell me the measured cell viability of O=C(O)C(Cl)Cl [Dichloroacetate] , please. 92.4%

Tell me the measured cell viability of C1CCC(C(CC2CCCCN2)C2CCCCC2)CC1.O=C(O)/C=C\C(=O)O (stereo unspecified) [Perhexiline] , please. 91.8%

Tell me the measured cell viability of Oc1cc(Cl)ccc1Oc1ccc(Cl)cc1Cl [Triclosan] , please. 94.5%

Tell me the measured cell viability of C1CCc2nnc(C34CC5CC(CC(C5)C3)C4)n2CC1 [MERCK-544] , please. 95.9%

Tell me the measured cell viability of COc1cc2c(NC3CCN(C)CC3)nc(N3CCCN(C)CC3)nc2cc1OCCCN(C)C [UNC0224] , please. 100%

Tell me the measured cell viability of CC(C)C[C@H](NC(=O)[C@@H](O)[C@H](N)Cc1ccccc1)C(=O)O [Ubenimex] , please. 99.5%

Tell me the measured cell viability of `O=C(O)C(S)=Cc1c[nH]c2ccc(F)cc12` , please. 104%

Tell me the measured cell viability of CCOC(=O)[C@@]1(CCCCCCOc2ccc(Cl)cc2)CO1 [Etomoxir] , please. 93.5%

====

Catalogue of molecules with associated cell viability
system: HL-60; assay: cell viability (% survival relative to DMSO control); higher = less cytotoxic; settings: 1 µM; 72 h; co-treatment: pictilisib 100 nM
Field: numeric (%). Do not append units.

Tell me the measured cell viability of `O=c1c2ccccc2[se]n1-c1ccccc1` , please. 103

Tell me the measured cell viability of CC12CCC(O)CC1CCC1C2CCC2(C)C(C3=CC(=O)OC3)CCC12O (stereo not drawn) , please. -1.18

Values compiled from the supplement of paper PMC8671470.
